Biological target: rat A1 receptors (rA1) (Rattus norvegicus, UniProt P25099)
Construct: to A1 receptors from rat cerebral cortical membranes; from tissue; host or cells: rat cerebral cortical (brain) membranes
Sequence (P25099 whole entry): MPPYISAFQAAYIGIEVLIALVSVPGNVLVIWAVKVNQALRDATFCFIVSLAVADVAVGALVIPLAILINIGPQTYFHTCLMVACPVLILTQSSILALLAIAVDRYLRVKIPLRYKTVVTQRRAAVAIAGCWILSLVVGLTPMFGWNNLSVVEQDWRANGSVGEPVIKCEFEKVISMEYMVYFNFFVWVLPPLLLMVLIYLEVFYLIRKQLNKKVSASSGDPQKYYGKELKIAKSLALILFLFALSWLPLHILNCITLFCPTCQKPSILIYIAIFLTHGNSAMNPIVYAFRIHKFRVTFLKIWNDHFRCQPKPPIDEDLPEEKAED
Test: Displacement of [3H]R-PIA binding in rat brain (cerebral cortical) membranes
Details: Table 4; read-out: rA1 Ki
List of pKi values.
# pKi = -log10(concentration in molar units)

Reference set, count: 2
CCCn1c(=O)c2[nH]c(-c3ccc(OCC(=O)NN4C(=O)CC[C@H](NC(=O)C(F)(F)F)C4=O)cc3)nc2n(CCC)c1=O | 7.27
CCCn1c(=O)[nH]c(=O)c2[nH]c(-c3ccc(OCC(=O)NN4C(=O)C(C)=C(C)C4=O)cc3)nc21 | 5.44

// below: pKi requested for another compound
Exercise: Provide pKi, system rat A1 receptors (rA1) (Rattus norvegicus, UniProt P25099), entry `CCCn1c(=O)c2[nH]c(-c3ccc(OCC(=O)NN4C(=O)CCC4=O)cc3)nc2n(CCC)c1=O`
Key: 7.25

* * *

Target: rat A1 receptors (rA1) (Rattus norvegicus)
Construct: to A1 receptors from rat cerebral cortical membranes; from tissue; host or cells: rat cerebral cortical (brain) membranes
Test: Displacement of [3H]R-PIA binding in rat brain (cerebral cortical) membranes
Conditions: Table 2; read-out: rA1 Ki or IC50
In this section we review reported Ki values for a set of molecules.
Record the value in µM, omitting the unit from your answer.

# example entries with known answers
CCCn1c(=O)c2[nH]c(-c3ccc(OCC(=O)Nc4ccc(I)cc4)cc3)nc2n(CCC)c1=O [Compound 33] | 0.0157
CCCn1c(=O)c2[nH]c(-c3ccc(OCC(=O)Nc4ccc([N+](=O)[O-])cc4)cc3)nc2n(CCC)c1=O [Compound 28] | 0.0131
CCCn1c(=O)c2[nH]c(-c3ccc(OCC(=O)Nc4ccc(Br)cc4)cc3)nc2n(CCC)c1=O [Compound 32] | 0.00746

Exercise: # return recorded Ki for input CCCn1c(=O)c2[nH]c(-c3ccc(OCC(N)=O)cc3)nc2n(CCC)c1=O [Compound 11]
Key: 0.02

Exercise: Output Ki of CCCn1c(=O)c2[nH]c(-c3ccc(OCC(=O)N(Cc4ccccc4)Cc4ccccc4)cc3)nc2n(CCC)c1=O [Compound 15]
Key: 0.167

Exercise: Recall and state the measured Ki for CCCn1c(=O)c2[nH]c(-c3ccc(OCC(=O)Nc4ccc(C(=O)O)cc4)cc3)nc2n(CCC)c1=O [Compound 24] .
Key: 0.145

Exercise: Output measured Ki for this item: CCCn1c(=O)c2[nH]c(-c3ccc(OCC(=O)Nc4cccc(C(C)=O)c4)cc3)nc2n(CCC)c1=O [Compound 19]
Key: 0.439
